So I've got a bunch of compounds here, and I need their inhibition values.
biological target: C3a anaphylatoxin chemotactic receptor (Homo sapiens) (UniProt Q16581); test: Displacement of [125I]-C3a from C3aR in human MDM cells at 20 uM after 60 mins by microbeta scintillation counting analysis; type: cell-based
Sequence (Q16581 whole entry): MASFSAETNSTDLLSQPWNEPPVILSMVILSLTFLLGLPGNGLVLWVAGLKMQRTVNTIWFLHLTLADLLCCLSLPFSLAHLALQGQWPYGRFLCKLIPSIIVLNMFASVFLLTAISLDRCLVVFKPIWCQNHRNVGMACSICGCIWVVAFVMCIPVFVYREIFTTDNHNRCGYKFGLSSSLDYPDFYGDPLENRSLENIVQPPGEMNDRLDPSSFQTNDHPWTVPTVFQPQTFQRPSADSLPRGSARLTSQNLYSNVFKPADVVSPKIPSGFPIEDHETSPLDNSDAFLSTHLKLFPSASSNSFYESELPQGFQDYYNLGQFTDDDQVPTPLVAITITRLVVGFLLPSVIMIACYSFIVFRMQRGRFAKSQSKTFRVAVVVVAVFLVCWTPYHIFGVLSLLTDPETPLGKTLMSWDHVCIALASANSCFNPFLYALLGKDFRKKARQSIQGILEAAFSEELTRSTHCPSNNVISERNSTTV

Query: For the compound COc1ccc(OC)c(CC(=O)N[C@@H](CC(C)C)c2nc(C(=O)N[C@@H](CCCNC(=N)N)C(=O)O)c(C)o2)c1 , what inhibition is on record?
Result: 42%

Query: For the compound Cc1oc([C@H](CC(C)C)NC(=O)CC2CCCCC2)nc1C(=O)N[C@@H](CCCNC(=N)N)C(=O)O , what inhibition is on record?
Result: 26%

Query: For the compound Cc1oc([C@H](CC(C)C)NC(=O)C2CCCCC2)nc1C(=O)N[C@@H](CCCNC(=N)N)C(=O)O , what inhibition is on record?
Result: 39%
